# pIC50 per entry
Biological target: TAF1-BD2 (Homo sapiens)
Test: TAF1-BD2 TR-FRET Binding Assay
Details: read-out: TAF1-BD2 HTRF IC50
The read-out pIC50 is expressed as -log10 of concentration in moles per litre.

C=CCCn1cc(C#C[C@](C)(O)c2cc(C)on2)c2c(C(=O)OCC)c(C)[nH]c2c1=O [Example 71] | 6.72
CCOC(=O)c1c(C)[nH]c2c(=O)n(C)cc(C#CC3(O)COC3)c12 [Example 30] | 7.06
CCOC(=O)c1c(C)[nH]c2c(=O)n(C)cc(C#CC3(O)CCC3)c12 [Example 21] | 7.21

Lab entry: TAF1-BD2 (Homo sapiens) assay, compound Cc1ccccc1COC(=O)c1c(C)[nH]c2c(=O)n(C)cc(C#CC(O)(c3ccccc3)C(F)(F)F)c12 (stereo not shown) [Example 108] , pIC50 = 5.90

Summary line: CCOC(=O)c1c(C)[nH]c2c(=O)n(C)cc(C#CC3(O)C(=O)N(C)c4ccccc43)c12 (stereo not shown) [Example 86] , TAF1-BD2 (Homo sapiens), reported pIC50 = 7.01

Field pIC50 (TAF1-BD2 (Homo sapiens)), entry CCOC(=O)c1c(C)[nH]c2c(=O)n(C)cc(C#CC(O)(CC)c3ccccc3)c12 (stereo not shown) [Example 75] : 7.12

TAF1-BD2 (Homo sapiens) pIC50 of CCOC(=O)c1c(C)[nH]c2c(=O)n(C)cc(C#CC3(C)COC3)c12 [Example 13] is 6.42

Value sought: pIC50, system TAF1-BD2 (Homo sapiens), item CCOC(=O)c1c(C)[nH]c2c(=O)n(C)cc(C#Cc3ccccc3)c12 [Example 55] . Result: 7.13

I looked up Cc1nnc(-c2c(C)[nH]c3c(=O)n(C)cc(C#CC(C)(O)C4CC4)c23)o1 (stereo not shown) [Example 192] and its pIC50 for TAF1-BD2 (Homo sapiens) was 7.21

Result for Cc1[nH]c2c(=O)n(C)cc(C#CC(C)(C)O)c2c1C(=O)NC(C)(C)C [Example 170] , tested on TAF1-BD2 (Homo sapiens), pIC50: 6.46

Record Cc1[nH]c2c(=O)n(C)cc(C#CC(C)(C)O)c2c1C(=O)NC(C)C [Example 169] has TAF1-BD2 (Homo sapiens) pIC50 equal to 5.57

The compound CCOC(=O)c1c(C)[nH]c2c(=O)n(C)cc(C#CC(C)(O)CCc3ccccc3)c12 (stereo not shown) [Example 23] , tested on TAF1-BD2 (Homo sapiens), showed pIC50 of 7.23

Noted pIC50 for CC(=O)NCCC(C)(C)OC(=O)c1c(C)[nH]c2c(=O)n(C)cc(C#CC(C)(C)O)c12 [Example 164] , tested on TAF1-BD2 (Homo sapiens): 7.31

Reported TAF1-BD2 (Homo sapiens) pIC50 for item Cc1[nH]c2c(=O)n(C)cc(C#CC(O)(c3ccccc3)C(F)(F)F)c2c1-c1nnc(C(C)(C)C)o1 (stereo not shown) [Example 188] was 7.06

Result for CCOC(=O)c1c(C)[nH]c2c(=O)n(C)cc(C#Cc3ccsc3)c12 [Example 62] , tested on TAF1-BD2 (Homo sapiens), pIC50: 7.24

Case Cc1[nH]c2c(=O)n(C)cc(C#CC(C)(O)C3CC3)c2c1-c1nnc(C(C)(C)C)o1 (single isomer, unassigned) [Example 98a] , TAF1-BD2 (Homo sapiens), pIC50 recorded as 6.64
